- EXPERIMENT SUMMARY: chemical genetic growth profiling, strain panel (AID 1159580);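 note: tested at 20 µM; growth read once vehicle control cultures reached saturation at 30 °C; 1 = growth at the plate median or of vehicle wells; lower values mean less growth of the strain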
- CONDITION: S. cerevisiae deletion strains, growth OD, locus YKL085W, strain MDH1 (second series)
Hit rate of the full screen: of about 5,500 compounds, about 2,000 (36%) were called active. Another 18% or so got no clear call; they are omitted. Cut-off read from the data, not from the text of the source: active = normalized growth mostly below about 0.91 (no sharp cut-off); inconclusive = no clear call, values can overlap the other calls; inactive = mostly above about 0.92. The list shows a part of the results. Where a SMILES comes first, the peptide text is derived from it. Side-chain parts run from the residue outwards. [ ]: non-standard residue; d: D form. The star is where a group is joined. X1 = CCC(C)C(N)C1=NC(C(=O)*)CS1; Orn = NCCC[CH](N)C(=O)O
Permitted responses: active, inactive

Sample answers from the record:
{"COMPOUND": "CCOc1ccc(C(=O)c2cc(O)c(OC)c(OC)c2O)cc1", "DISCRETE LABEL": "inactive"}
{"COMPOUND": "COP(=O)(OC)OC(Br)C(Cl)(Cl)Br (centres undefined)", "DISCRETE LABEL": "inactive"}
{"COMPOUND": "COc1ccc([C@H]2COc3c(ccc(O)c3OC)C2)c(OC)c1O", "DISCRETE LABEL": "inactive"}
{"COMPOUND": "CC1=CC2C(C(C)C)CCC(C)(O)C2CC1 (centres undefined)", "DISCRETE LABEL": "inactive"}
{"COMPOUND": "CCC(C)C(N)C1=NC(C(=O)NC(CC(C)C)C(=O)NC(CCC(=O)O)C(=O)NC(C(=O)NCCCCC2NC(=O)C(CC(N)=O)NC(=O)C(CC(=O)O)NC(=O)C(Cc3cnc[nH]3)NC(=O)C(Cc3ccccc3)NC(=O)C(C(C)CC)NC(=O)C(CCCN)NC2=O)C(C)CC)CS1 (stereo not drawn) (cyclo(DNK([Ile-Glu-Leu-X1])[Orn]IFH); configuration not given here)", "DISCRETE LABEL": "inactive"}
{"COMPOUND": "CC(NCCC(c1ccccc1)c1ccccc1)c1ccccc1 (centres undefined)", "DISCRETE LABEL": "inactive"}

IN: Assay outcome for C[C@]12CCC(=O)C=C1CCC1C2C(=O)C[C@@]2(C)C1CC[C@]2(O)C(=O)CO (some centres undefined) : what was it?
OUT: inactive

IN: Recorded call for O=C(CCBr)N1CCN(C(=O)CCBr)CC1 ?
OUT: inactive

IN: Test call, this compound: CCCCc1nc(Cl)c(CO)n1Cc1ccc(-c2ccccc2-c2nn[nH]n2)cc1
OUT: inactive

IN: Test call for this compound, please: C#CC1(O)CCC2C3CCC4=CC(=O)CCC4(C)C3CCC21C (centres undefined)
OUT: inactive

IN: Just curious, what result did CCOC([O-])=Nc1c[n+](N2CCOCC2)no1 get here?
OUT: inactive

IN: Identify the outcome logged in this assay for the compound shown: CC[C@H]1OC(=O)[C@H](C)[C@@H](O[C@H]2C[C@@](C)(OC)[C@@H](O)[C@H](C)O2)[C@H](C)[C@@H](O[C@@H]2O[C@H](C)C[C@H](N(C)C)[C@H]2O)[C@](C)(O)C[C@@H](C)[C@@H]2N[C@@H](COCCOC)O[C@H]([C@H]2C)[C@]1(C)O
OUT: inactive

IN: Hi team, can someone confirm the assay call for CN(C)CCc1c[nH]c2ccc(CS(=O)(=O)N3CCCC3)cc12 ?
OUT: inactive

IN: // return assay outcome for CC(=O)[C@@]1(O)CCC2C3CCC4=CC(=O)CC[C@]4(C)C3CC[C@@]21C (some centres undefined)
OUT: inactive

----------
- EXPERIMENT SUMMARY: chemical genetic growth profiling, strain panel (AID 1159580);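 note: tested at 20 µM; growth read once vehicle control cultures reached saturation at 30 °C; 1 = growth at the plate median or of vehicle wells; lower values mean less growth of the strain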
- CONDITION: S. cerevisiae deletion strains, growth OD, locus YNL250W, strain rad50, hits give low values
Screen size: about 5,500 compounds; about 2,000 (36%) were called active. About 18% were inconclusive and are not listed. The list shows a part of the results. Where a SMILES comes first, the peptide text is derived from it. Side-chain parts run from the residue outwards. [ ]: non-standard residue; d: D form. The star is where a group is joined. X1 = CCC(C)C(N)C1=NC(C(=O)*)CS1; Orn = NCCC[CH](N)C(=O)O
List of normalized growth values.
Answer with a number only.

Worked cases, answers included:
{"MOLECULE": "CC(=O)Oc1cccc2c1C(=O)c1c(OC(C)=O)cc(C(=O)O)cc1C2=O", "normalized growth": 0.992}
{"MOLECULE": "Cc1onc(-c2ccccc2Cl)c1C(=O)N[C@@H]1C(=O)N2[C@@H]1SC(C)(C)[C@@H]2C(=O)O", "normalized growth": 1.01}
{"MOLECULE": "CCCCc1nc(Cl)c(CO)n1Cc1ccc(-c2ccccc2-c2nn[nH]n2)cc1", "normalized growth": 0.993}
{"MOLECULE": "CC(=O)O[C@H]1CC[C@]2(C)C3CC[C@@]4(C)C(CC5O[C@@]6(CCC(C)CO6)[C@@H](C)C54)C3CC[C@@H]2C1 (stereo partly specified)", "normalized growth": 0.975}
{"MOLECULE": "COc1cc(/C=C/C=O)cc(OC)c1OC", "normalized growth": 1}
{"MOLECULE": "Cc1cc(C(C)(C)C)cc(C)c1CC1=NCCN1", "normalized growth": 1.01}
{"MOLECULE": "CCc1cccc2c3c([nH]c12)C(CC)(CC(=O)O)OCC3 (stereo unspecified)", "normalized growth": 0.992}
{"MOLECULE": "CCC(C)C(N)C1=NC(C(=O)NC(CC(C)C)C(=O)NC(CCC(=O)O)C(=O)NC(C(=O)NCCCCC2NC(=O)C(CC(N)=O)NC(=O)C(CC(=O)O)NC(=O)C(Cc3cnc[nH]3)NC(=O)C(Cc3ccccc3)NC(=O)C(C(C)CC)NC(=O)C(CCCN)NC2=O)C(C)CC)CS1 (stereo not drawn) (cyclo(DNK([Ile-Glu-Leu-X1])[Orn]IFH); configuration not given here)", "normalized growth": 1.01}
{"MOLECULE": "COc1c2c(cc3c1OCO3)C13C=C[C@H](OC)CC1N(C2)CC3O (stereo partly specified)", "normalized growth": 0.983}
{"MOLECULE": "c1ccc([C@H]2CN3CCSC3=N2)cc1", "normalized growth": 1.01}

Now turn to the next molecule.
IN: Item Cc1cc(C(C)(C)C)c(O)c(C)c1CC1=NCCN1 has what recorded normalized growth?
OUT: 1.01

----------
- EXPERIMENT SUMMARY: chemical genetic growth profiling, strain panel (AID 1159580);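 note: tested at 20 µM; growth read once vehicle control cultures reached saturation at 30 °C; 1 = growth at the plate median or of vehicle wells; lower values mean less growth of the strain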
- CONDITION: S. cerevisiae deletion strains, growth OD, locus YHR079C, strain IRE1, hits give low values
About 2,000 (36%) of roughly 5,500 compounds were called active. Not shown: some 18% with an inconclusive outcome. Some of the results follow.
Label Satisfied when normalized growth is strictly below 1; otherwise label Not satisfied.

Look over these answered cases.
{"COMPOUND": "CO[C@@]1(NC(=O)Cc2cccs2)C(=O)N2C(C(=O)O)=C(COC(N)=O)CS[C@@H]21", "DISCRETE LABEL": "Not satisfied"}
{"COMPOUND": "COc1c2ccoc2cc2oc(C)cc(=O)c12", "DISCRETE LABEL": "Not satisfied"}
{"COMPOUND": "C/C(=N/NC(=O)c1ccc(C(C)(C)C)cc1)c1ccccc1O", "DISCRETE LABEL": "Satisfied"}
{"COMPOUND": "c1ccc([C@H]2CN3CCSC3=N2)cc1", "DISCRETE LABEL": "Not satisfied"}

IN: State whether 1 exceeds normalized growth recorded for Cc1ccc2nc(-c3ccc([N+](=O)[O-])o3)oc(=O)c2c1 .
OUT: Satisfied

IN: Strictly below 1 in normalized growth? Cc1onc(-c2ccccc2)c1C(=O)NC1C(=O)N2[C@@H]1SC(C)(C)[C@@H]2C(=O)O (some centres undefined)
OUT: Satisfied

IN: Is the reported normalized growth for CCc1cccc2c3c([nH]c12)C(CC)(CC(=O)O)OCC3 (centres undefined) strictly below 1?
OUT: Satisfied

IN: Threshold test, normalized growth < 1: S=C(Nc1ccc(Cl)cc1)Nc1ccc(Cl)cc1
OUT: Satisfied

IN: Field: below-cutoff. Rule: recorded normalized growth strictly less than 1. Subject: O=C(O)c1cc(=O)c2cccc(O)c2[nH]1
OUT: Satisfied

----------
- EXPERIMENT SUMMARY: chemical genetic growth profiling, strain panel (AID 1159580);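 note: tested at 20 µM; growth read once vehicle control cultures reached saturation at 30 °C; 1 = growth at the plate median or of vehicle wells; lower values mean less growth of the strain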
- CONDITION: S. cerevisiae deletion strains, growth OD, locus YDL005C, strain med2, hits give low values
In all, about 5,500 compounds went through this assay and about 2,000 (36%) were called active. Inconclusive results (about 18%) are left out. This is one part of the list.
RESULT TYPE: normalized growth

The examples below pair each entry with its known result.
{"COMPOUND": "CC(=O)OC1CCC2(C)C3CC(=O)C4(C)C(CC5OC6(CCC(C)CO6)[C@@H](C)C54)C3CC[C@H]2C1 (stereo not given in full)", "normalized growth": "0.975 (inactive)"}
{"COMPOUND": "CC(=O)O[C@H]1CC[C@]2(C)C3CC(=O)[C@]4(C)C(C(C)=O)=CCC4C3CC[C@H]2C1 (stereo not given in full)", "normalized growth": "0.984 (inactive)"}
{"COMPOUND": "CN[C@@H]1[C@@H](O[C@H]2O[C@H](CO)[C@@H](N)[C@H](O)[C@H]2O)O[C@H]2C[C@@H](N)[C@H](O[C@H]3[C@H](O)[C@@H](O)[C@H](N)C[C@@H]3N)O[C@@H]2[C@@H]1O", "normalized growth": "0.995 (inactive)"}
{"COMPOUND": "CO[C@@]1(NC(=O)Cc2cccs2)C(=O)N2C(C(=O)O)=C(COC(N)=O)CS[C@@H]21", "normalized growth": "0.981 (inactive)"}

Pending compound:
IN: Query (compound): CC(=O)O[C@@H]1CC[C@]2(C)C3CC[C@]4(C)C(=O)CCC4C3CC[C@H]2C1 (stereo not given in full) ; field requested: normalized growth
OUT: 1 (inactive)
